Target: T1, EsCas13d, nuclease-dead (Eubacterium siraeum, UniProt B0MS50, R295A;H300A;R849A;H854A)
T1 sequence: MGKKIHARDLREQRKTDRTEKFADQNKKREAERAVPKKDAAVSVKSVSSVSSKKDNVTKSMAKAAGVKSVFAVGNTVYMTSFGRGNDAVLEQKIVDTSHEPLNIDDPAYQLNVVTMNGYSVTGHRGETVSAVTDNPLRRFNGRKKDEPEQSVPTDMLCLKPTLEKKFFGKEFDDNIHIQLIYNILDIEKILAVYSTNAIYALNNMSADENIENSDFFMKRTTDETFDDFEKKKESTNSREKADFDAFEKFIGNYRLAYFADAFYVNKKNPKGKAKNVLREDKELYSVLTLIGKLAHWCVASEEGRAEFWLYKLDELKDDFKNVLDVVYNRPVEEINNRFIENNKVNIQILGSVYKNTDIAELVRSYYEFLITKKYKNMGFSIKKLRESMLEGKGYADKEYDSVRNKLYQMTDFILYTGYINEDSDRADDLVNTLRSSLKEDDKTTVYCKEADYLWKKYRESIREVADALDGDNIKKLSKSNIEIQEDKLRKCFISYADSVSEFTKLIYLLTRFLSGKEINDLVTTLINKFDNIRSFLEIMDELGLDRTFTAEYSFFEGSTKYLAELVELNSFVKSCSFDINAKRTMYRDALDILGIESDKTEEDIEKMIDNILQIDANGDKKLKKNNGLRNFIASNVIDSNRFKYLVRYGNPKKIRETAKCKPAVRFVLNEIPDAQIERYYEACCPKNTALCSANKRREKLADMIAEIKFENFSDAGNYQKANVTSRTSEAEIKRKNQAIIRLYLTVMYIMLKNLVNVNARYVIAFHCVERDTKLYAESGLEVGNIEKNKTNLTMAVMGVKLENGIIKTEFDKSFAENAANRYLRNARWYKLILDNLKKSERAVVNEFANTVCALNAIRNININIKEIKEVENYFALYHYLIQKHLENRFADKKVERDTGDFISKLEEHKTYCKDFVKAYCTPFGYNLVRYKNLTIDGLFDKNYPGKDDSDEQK
Assay: crRNA (strand 1, pre-loaded); Mg2+; 40 mM Tris-HCl pH 7.5, 150 mM NaCl, 6 mM MgCl2, 1 mM DTT, 0.1% Tween-20, 0.2 mg/ml BSA; 25 C; 10 min per concentration, then washed
Conditions: tags: His6-TwinStrep-SUMO cleaved; N-terminal SNAP kept (SNAP-Surface 488); label: 3' end held by stalled T7 RNA polymerase
pKd: −log10 of the molar value.
# cutoff 8 applies to pKd; >= gives Y, < gives N

BINDER | CLASSIFICATION
target 3 insC 3' of 5,insG 3' of 5 (mixed) RNA 1: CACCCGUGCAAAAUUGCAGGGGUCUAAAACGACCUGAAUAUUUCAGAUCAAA RNA 2: GGGAAUGGAUCCACAUCUACGAAUUCGUUUUUGAUCUGAAAUAUUCACGGGUCUGCAGAUCGGAAGAGCACACGU | Y
target 1 insA 3' of 19,insC 3' of 1 (mixed) RNA 1: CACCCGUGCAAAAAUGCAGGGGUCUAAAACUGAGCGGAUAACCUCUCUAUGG RNA 2: GGGAAUGGAUCCACAUCUACGAAUUCGUACCAUAAGAGAGGUUAUCCGCUCACCCGAGAUCGGAAGAGCACACGU | N
target 1 insA 3' of 4,insG 3' of 1 (mixed) RNA 1: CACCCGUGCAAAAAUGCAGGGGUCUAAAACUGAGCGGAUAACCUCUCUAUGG RNA 2: GGGAAUGGAUCCACAUCUACGAAUUCGUACCAUAGAGAGGUUAUCCGCAUCAGCCGAGAUCGGAAGAGCACACGU | Y
target 2 MT 5'PFS GGU 3'PFS AUC (mixed) RNA 1: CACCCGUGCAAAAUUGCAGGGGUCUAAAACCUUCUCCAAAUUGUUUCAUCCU RNA 2: GGGAAUGGAUCCACAUCUACGAAUUCGGUAGGAUGAAACAAUUUGGAGAAGAUCAGAUCGGAAGAGCACACGU | N
target 3 U7A,U22C (mixed) RNA 1: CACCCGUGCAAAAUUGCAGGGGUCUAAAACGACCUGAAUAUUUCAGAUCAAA RNA 2: GGGAAUGGAUCCACAUCUACGAAUUCGUUCUUGAUCUGAAAUAUACAGGUCUGCAGAUCGGAAGAGCACACGU | N
